B1: tRNA (parent)
chain: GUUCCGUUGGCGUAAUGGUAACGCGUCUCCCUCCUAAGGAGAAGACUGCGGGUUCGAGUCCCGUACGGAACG

- Variants of: B1
- protocol.summary: yeast fitness relative to wild type (ratio to wild type); higher = fitter; tRNA-Arg(CCU), competitive growth, 37 C, YPD
Variants at the floor of the assay were thinned out.
readout.kind: yeast fitness
Just the number.

The cases that follow already have their yeast fitness on record.
sequence.variant	yeast fitness
C24G G41C G68C	0.592
G9A C29U U32A A43U	0.604
U2C C55U	0.792

For the variant C4A C11U U32A G38C U47A U53G , give its reported yeast fitness.
0.56

For the variant A21U U54A G56C A70G , give its reported yeast fitness.
0.576

For the variant U3G A43U U54A A57C , give its reported yeast fitness.
0.588
